These data points were gathered from patent US20110212094A1.

- ASSAYED TARGET: T1, Recombinant Human TNF-α/TNFSF1A (human, UniProt P01375 77-233)
- T1 construct: Bought reagent for Biacore; also called huTNFα
- T1 sequence (P01375 77-233 limits assumed): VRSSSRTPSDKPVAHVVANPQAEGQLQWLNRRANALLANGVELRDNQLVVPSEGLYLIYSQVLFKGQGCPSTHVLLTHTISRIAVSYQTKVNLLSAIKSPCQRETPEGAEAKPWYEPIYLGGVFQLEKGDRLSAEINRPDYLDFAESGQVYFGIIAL
- PROCEDURE DETAILS: Biacore SPR
ENDPOINT NAME: kon (M⁻¹ s⁻¹)
Give the value, in units of M⁻¹ s⁻¹, as a plain number.

Form field kon, entry AB213 (antibody, human IgG1, kappa, V domains shown, Parent anti-TNF antibody; also called AB213VH) VH: QVQLKESGPGLVAPSQSLSITCTVSGFSLTDYGVNWVRQPPGKGLEWLGMIWGDGSTDYDSTLKSRLSISKDNSKSQIFLKMNSLQTDDTARYYCAREWHHGPVAYWGQGTLVTVSA VL: DIVMTQSHKFMSTTVGDRVSITCKASQAVSSAVAWYQQKPGQSPKLLIYWASTRHTGVPDRFTGSGSVTDFTLTIHNLQAEDLALYYCQQHYSTPFTFGSGTKLEIKR : 3.23e+06

Form field kon, entry AB218 (antibody, human IgG1, kappa, V domains shown, Parent anti-TNF antibody; also called AB218VH) VH: EVQLVESGGGLIQPGGSLRLSCAASGFTVSRNYMSWVRQAPGKGLEWVSVIYSGDRTYYADSVKGRFTISRDNSKNTLYLQMNSLRAEDTAVYYCARGEGGFDYWGQGTLVTVSS VL: EIVMTQSPATLSVSPGERATLSCRASQSVSSNLAWYQQKPGQAPRLLIHGASIRATGLPARFSGSGSGTEFTLTISSLQSEDFAVYYCQQYNYWWTFGQGTKVEIKR : 1.79e+06

Form field kon, entry AB217 (antibody, human IgG1, kappa, V domains shown, Parent anti-TNF antibody; also called AB217VH) VH: QVQLVESGGGVVQPGRSLRLSCAASGFTFSSYDMHWVRQAPGKGLEWVAVIWSDGSIKYYADSVKGRFTISRDNSKNTLYLQMNSLRAEDTAVYYCAREVESAMGGFYYNGMDVWGQGTTVTVSS VL: DIQMTQSPSSLSASVGDRVTITCRASQGIRIDLGWYQQKPGKAPKRLIYAASTLQSGVPSRFSGSGSGTEFIFTISSLQPEDFASYYCLQHKSYPLTFGGGTKVEIKR : 1.85e+06

Form field kon, entry AB215 (antibody, human IgG1, kappa, V domains shown, Parent anti-TNF antibody; also called AB215VH) VH: QVQLVESGGGVVQPGRSLRLSCAASGFTFSSYAMHWVRQAPGNGLEWVAFMSYDGSNKYAKDSVKGRFTISRDNSKNTLYLQMNSLRAEDTAVYYCARDRGIAAGGNYYYYGMDVWGQGTTVTVSS VL: EIVLTQSPATLSLSPGERATLSCRASQSVYSYLAWYQQKPGQAPRLLIYDASNRATGIPARFSGSGSGTDFTLTISSLEPEDFAVYYCQQRSNWPPFTFGPGTKVDIKR : 1.74e+06
